- System: human SMAD7 mRNA
- Protocol details: Dose-dependent inhibition of human SMAD7 mRNA expression in Hep3B cells (Example 3, Study 1 and 2)
- Assay type: cell-based
- Particulars: 2220 nM, electroporation, approximately 16 hours, Study 2
Strand notation (5' to 3'): a small letter for the sugar, then the base; units joined by * are phosphorothioate-linked, units joined directly phosphodiester-linked; [ ] holds rarer units or linkages, { } end groups; capitals alone tell only the bases. k = constrained ethyl (cEt); [5mC] = 5-methylcytosine; d = 2'-deoxy (DNA)
Given measured % inhibition of SMAD7 mRNA expression, output T if it is greater than or equal to 50% and F if not.

Check the entry 798686 (antisense kG*kA*kG*dG*dA*dG*dG*d[5mC]*dG*dA*dG*dG*dA*kG*kA*kA) [compound 798686] : does % inhibition of SMAD7 mRNA expression equal or exceed 50%? F

Check the entry 798696 (antisense kT*k[5mC]*k[5mC]*d[5mC]*d[5mC]*d[5mC]*dT*dG*d[5mC]*dG*d[5mC]*d[5mC]*d[5mC]*kT*k[5mC]*k[5mC]) [compound 798696] : does % inhibition of SMAD7 mRNA expression equal or exceed 50%? F

Check the entry 799755 (antisense kG*kA*kA*dA*dG*dT*dT*dA*d[5mC]*dA*dG*dA*dA*k[5mC]*kT*k[5mC]) [compound 799755] : does % inhibition of SMAD7 mRNA expression equal or exceed 50%? F

Check the entry 799568 (k[5mC]*kA*kT*dT*dA*dG*dA*dA*dG*d[5mC]*dT*dT*dT*kG*kA*kG; antisense) [compound 799568] : does % inhibition of SMAD7 mRNA expression equal or exceed 50%? T

---

- Test system: human SMAD7 mRNA
- Protocol details: Dose-dependent inhibition of human SMAD7 mRNA expression in Hep3B cells (Example 3, Study 1 and 2)
- Format: cell-based
- Particulars: 20000.0 nM, electroporation, approximately 16 hours, Study 1
Strand notation (5' to 3'): a small letter for the sugar, then the base; units joined by * are phosphorothioate-linked, units joined directly phosphodiester-linked; [ ] holds rarer units or linkages, { } end groups; capitals alone tell only the bases. e = 2'-O-(2-methoxyethyl) (MOE); [5mC] = 5-methylcytosine; d = 2'-deoxy (DNA)
Classes are defined on % inhibition of SMAD7 mRNA expression with ranges 0 (below 40%), 1 (40% to below 50%), 2 (50% or more)

Category of 771506 (antisense eG*e[5mC]*eT*e[5mC]*eA*dG*d[5mC]*dT*d[5mC]*dA*d[5mC]*dG*d[5mC]*dT*d[5mC]*eT*eG*eT*e[5mC]*e[5mC]) [compound 771506] , please. 1

Category of 771474 (antisense eG*e[5mC]*eA*eG*e[5mC]*d[5mC]*dG*dA*dT*dT*dT*dT*dG*d[5mC]*dT*e[5mC]*e[5mC]*eG*e[5mC]*eA) [compound 771474] , please. 2

Category of 771782 (antisense eT*eA*eG*eG*eA*d[5mC]*dT*dG*dG*dA*dA*dG*dA*dG*d[5mC]*eT*eT*eT*eG*eG) [compound 771782] , please. 0

Category of 771570 (antisense eT*eG*eG*eG*eA*d[5mC]*dT*dG*d[5mC]*dA*dA*dA*d[5mC]*d[5mC]*dT*e[5mC]*eT*e[5mC]*eT*eG) [compound 771570] , please. 1

Category of 771487 (antisense e[5mC]*eT*eG*e[5mC]*eA*d[5mC]*dG*dG*dT*dA*dA*dA*dG*d[5mC]*d[5mC]*e[5mC]*eG*eT*e[5mC]*e[5mC]) [compound 771487] , please. 0

Category of 771825 (antisense e[5mC]*eT*e[5mC]*eT*e[5mC]*dA*dT*dT*dT*d[5mC]*dT*dG*dG*dA*dA*e[5mC]*e[5mC]*e[5mC]*eA*e[5mC]) [compound 771825] , please. 2

Category of 771403 (antisense eG*eA*eA*e[5mC]*eA*dT*dG*dA*d[5mC]*d[5mC]*dT*d[5mC]*d[5mC]*dG*d[5mC]*eA*e[5mC]*eA*e[5mC]*e[5mC]) [compound 771403] , please. 0

Category of 771797 (antisense eG*e[5mC]*eA*e[5mC]*eA*dG*dA*d[5mC]*dT*dG*d[5mC]*d[5mC]*dA*dA*dA*eT*e[5mC]*eA*e[5mC]*eA) [compound 771797] , please. 0

Category of 771778 (antisense eT*eG*eA*eG*eT*dA*dA*dA*d[5mC]*dA*dA*dT*dA*d[5mC]*d[5mC]*e[5mC]*eT*e[5mC]*eA*eG) [compound 771778] , please. 2

Category of 771345 (antisense eA*e[5mC]*eA*eG*e[5mC]*dA*dT*d[5mC]*dT*dG*dG*dA*d[5mC]*dA*dG*eT*e[5mC]*eA*eG*eT) [compound 771345] , please. 2

---

- Test system: human SMAD7 mRNA
- Protocol details: Antisense inhibition of human SMAD7 mRNA expression in Hep3B cells by 3-10-3 cEt gapmers, 10,000 nM, electroporation (Example 2)
- Type: cell-based
- Particulars: SMAD7 mRNA, Hep3B cells, 10,000 nM antisense oligonucleotide, electroporation, approximately 24 hours, primer probe set RTS5062, relative to untreated control cells
Strand notation (5' to 3'): a small letter for the sugar, then the base; units joined by * are phosphorothioate-linked, units joined directly phosphodiester-linked; [ ] holds rarer units or linkages, { } end groups; capitals alone tell only the bases. k = constrained ethyl (cEt); [5mC] = 5-methylcytosine; d = 2'-deoxy (DNA)
Endpoint label: % Inhibition (%)
# number only, unit % dropped from output

Answered examples (2):
[
  {
    "Substance": "829786 (antisense kG*kA*kA*dT*dG*d[5mC]*d[5mC]*dT*dG*dA*dG*dA*dT*k[5mC]*k[5mC]*kG) [compound 829786]",
    "% Inhibition (%)": 56
  },
  {
    "Substance": "772739 (kT*kA*k[5mC]*dT*d[5mC]*dA*d[5mC]*d[5mC]*dA*dG*dT*dT*dG*kG*kT*kT; antisense) [compound 772739]",
    "% Inhibition (%)": 0
  }
]

Next:
Give % Inhibition (human SMAD7 mRNA) of the following substance: 772809 (k[5mC]*k[5mC]*kT*dA*dA*dA*d[5mC]*dT*dG*dA*dG*d[5mC]*d[5mC]*k[5mC]*k[5mC]*kA; antisense) [compound 772809] 48

---

Overview of reported % inhibition of SMAD7 mRNA expression across a group of substances:
- Test system: human SMAD7 mRNA
- Protocol details: Antisense inhibition of human SMAD7 mRNA expression in Hep3B cells by 5-10-5 MOE gapmers, single concentration, electroporation, RT-PCR (Example 1, Study 1 and 2)
- Assay type: cell-based
- Particulars: electroporation, 15,000 nM, approximately 24 hours, relative to untreated control cells, gapmers targeting SEQ ID NO: 1 and 2
Strand notation (5' to 3'): a small letter for the sugar, then the base; units joined by * are phosphorothioate-linked, units joined directly phosphodiester-linked; [ ] holds rarer units or linkages, { } end groups; capitals alone tell only the bases. e = 2'-O-(2-methoxyethyl) (MOE); [5mC] = 5-methylcytosine; d = 2'-deoxy (DNA)
# number only, unit % dropped from output

[
  {
    "Substance": "771877 (antisense eT*eG*e[5mC]*eA*eG*dG*dA*dT*d[5mC]*d[5mC]*dG*dA*dT*dG*dG*eA*eA*eA*eA*eG) [compound 771877]",
    "Tested on": "human SMAD7 mRNA",
    "Unit text": "%",
    "% inhibition of SMAD7 mRNA expression": 24
  },
  {
    "Substance": "771430 (e[5mC]*eG*e[5mC]*e[5mC]*e[5mC]*dG*d[5mC]*dG*dG*d[5mC]*dT*dG*dG*d[5mC]*dG*eG*eG*eT*eG*eG; antisense) [compound 771430]",
    "Tested on": "human SMAD7 mRNA",
    "Unit text": "%",
    "% inhibition of SMAD7 mRNA expression": 40
  },
  {
    "Substance": "771392 (antisense e[5mC]*eT*e[5mC]*e[5mC]*eG*dG*d[5mC]*dT*dG*d[5mC]*d[5mC]*d[5mC]*d[5mC]*dA*d[5mC]*e[5mC]*e[5mC]*e[5mC]*eG*e[5mC]) [compound 771392]",
    "Tested on": "human SMAD7 mRNA",
    "Unit text": "%",
    "% inhibition of SMAD7 mRNA expression": 28
  }
]

// query % inhibition of SMAD7 mRNA expression value for entry 771869 (antisense eA*eG*e[5mC]*e[5mC]*eA*dA*dG*dT*dG*dT*d[5mC]*d[5mC]*dA*dT*d[5mC]*eA*eA*eG*e[5mC]*eA) [compound 771869] 62

// query % inhibition of SMAD7 mRNA expression value for entry 771861 (antisense eA*eG*eA*eA*eA*dA*d[5mC]*dA*dG*d[5mC]*d[5mC]*d[5mC]*d[5mC]*d[5mC]*d[5mC]*e[5mC]*eA*eG*e[5mC]*eA) [compound 771861] 13
